# Test system: U2OS
# Test Name: fractional viability (live cells / total cells); higher = less cell death
# Experimental Setup: 1 µM; 72 h
One threshold, 0.8, splits the recorded fractional viability values: lower ones are fulfilled, equal or higher ones are not fulfilled.

- Compound: "CO[C@@H]1C[C@@H](C[C@H]2CC[C@H](C)[C@H]([C@@H](C)C(=O)O)O2)O[C@]2(O[C@](C)([C@H]3CC[C@@](C)([C@@H]4O[C@@H]([C@H]5O[C@@](O)(CO)[C@H](C)C[C@@H]5C)C[C@@H]4C)O3)C[C@H]2C)[C@@H]1C"
  Category Label: "fulfilled"
- Compound: "Nc1ccc(-c2ccc3ncc4ccc(=O)n(-c5cccc(C(F)(F)F)c5)c4c3c2)cn1"
  Category Label: "not fulfilled"
- Compound: "C=CCn1c(=O)c2cnc(Nc3ccc(N4CCN(C)CC4)cc3)nc2n1-c1cccc(C(C)(C)O)n1"
  Category Label: "fulfilled"

Data request: Field: below-cutoff. Rule: recorded fractional viability strictly less than 0.8. Subject: CCOc1ccccc1-n1c(C(C)N2CCN(C(=O)COc3ccc(Cl)cc3)CC2)nc2ccccc2c1=O (stereo not given)
Data returned: not fulfilled

====

# Tested on: U2OS
# Test Name: normalized growth rate inhibition value (GR) relative to untreated cells (GR value (dimensionless, 1 = untreated growth)); higher = less growth inhibition
# Experimental Setup: 0.0316 µM; 72 h
I'd be grateful if you could share measured normalized growth rate inhibition value for these entries.
Give bare numbers.

- Compound Smiles: "COC1CCN(C(=O)c2cc(Cc3n[nH]c(=O)c4ccccc34)ccc2F)CC1"
  normalized growth rate inhibition value: 0.882
- Compound Smiles: "CCC(=O)N1CCN(c2ccc(-n3c(=O)ccc4cnc5ccc(-c6cnc7ccccc7c6)cc5c43)cc2C(F)(F)F)CC1"
  normalized growth rate inhibition value: 0.896

Read the next record carefully.
Per the records, this compound ( O=C(O)CCCc1ccc(N(CCCl)CCCl)cc1 ) has normalized growth rate inhibition value equal to 0.879
